B1: HDV Ribozyme (parent)
chain: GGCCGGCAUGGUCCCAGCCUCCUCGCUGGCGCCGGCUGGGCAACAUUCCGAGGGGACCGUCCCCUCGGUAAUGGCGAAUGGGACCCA

variants of: B1; assay: self-cleavage, relative activity (ratio to wild type); higher = more cleavage; co-transcriptional
experimental.readout: self-cleavage
One number for each entry.

Consider the reported self-cleavage for these variants:
var	self-cleavage
U60A U69G	1.01
U9A G73U	0.244
G50C G80C	0.0906

Would you mind listing self-cleavage for each of the following variants?
1. C22G G67C
2. C24A U79C
3. G29A C44G
4. G38C A42U
5. C4G G11C
6. A42C C57U

-- reply
[0.132, 0.12, 0.151, 0.208, 0, 0.203]

Would you mind listing self-cleavage for each of the following variants?
1. C33A C85G
2. C13U U72A
3. U69C G76C
4. C26G C58G

-- reply
1. 0.309
2. 0.128
3. 1.11
4. 0.906
